The origin of these recorded values is patent US5464820A.

- target-desc: human plasma kallikrein (HPK) (Homo sapiens, UniProt P03952)
- Sequence (P03952 20-638): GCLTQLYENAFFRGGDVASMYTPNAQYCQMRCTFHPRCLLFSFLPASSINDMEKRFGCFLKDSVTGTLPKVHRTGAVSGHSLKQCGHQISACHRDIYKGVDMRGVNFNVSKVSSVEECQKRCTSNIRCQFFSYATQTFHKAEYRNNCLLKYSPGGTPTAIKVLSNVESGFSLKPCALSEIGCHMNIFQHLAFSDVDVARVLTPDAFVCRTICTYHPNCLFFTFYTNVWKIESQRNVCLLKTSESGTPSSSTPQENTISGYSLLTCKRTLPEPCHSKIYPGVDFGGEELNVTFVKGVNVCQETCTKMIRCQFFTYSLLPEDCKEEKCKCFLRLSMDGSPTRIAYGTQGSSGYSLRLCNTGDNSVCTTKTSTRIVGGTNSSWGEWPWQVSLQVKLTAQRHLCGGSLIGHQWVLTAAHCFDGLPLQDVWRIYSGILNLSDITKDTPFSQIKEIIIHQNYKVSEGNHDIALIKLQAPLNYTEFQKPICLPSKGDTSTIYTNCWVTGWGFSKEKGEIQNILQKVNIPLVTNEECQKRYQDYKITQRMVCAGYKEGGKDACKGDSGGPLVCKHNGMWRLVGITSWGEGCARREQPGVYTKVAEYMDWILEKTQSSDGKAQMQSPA
- assay-name: Inhibition of human plasma kallikrein (KI)
- Type: biochemical
- study-conditions: Table 4, Pro-X-Arg-Ser-Val-Gln; read-out: KI HPK
pKi: −log10 of the molar value. Non-standard residues stand in square brackets, D forms with d. Residues, ends and D or L forms follow the SMILES beside them. 1Nal = N[C@@H](Cc1cccc2ccccc12)C(=O)O; 2Nal = N[C@@H](Cc1ccc2ccccc2c1)C(=O)O; Phe(2-F) = N[C@@H](Cc1ccccc1F)C(=O)O

{"compound": "CC(C)[C@H](NC(=O)[C@H](CO)NC(=O)[C@H](CCCNC(=N)N)NC(=O)[C@H](Cc1cccc2ccccc12)NC(=O)[C@@H]1CCCN1)C(=O)N[C@@H](CCC(N)=O)C(N)=O [KCH-7] (H-P[1Nal]RSVQ-NH2)", "pKi": 3.29}
{"compound": "CC(C)[C@H](NC(=O)[C@H](CO)NC(=O)[C@H](CCCNC(=N)N)NC(=O)[C@H](Cc1ccccc1F)NC(=O)[C@@H]1CCCN1)C(=O)N[C@@H](CCC(N)=O)C(N)=O [KCH-1] (H-P[Phe(2-F)]RSVQ-NH2)", "pKi": 3.33}
{"compound": "CC(C)[C@H](NC(=O)[C@H](CO)NC(=O)[C@H](CCCNC(=N)N)NC(=O)[C@H](Cc1ccc2ccccc2c1)NC(=O)[C@@H]1CCCN1)C(=O)N[C@@H](CCC(N)=O)C(N)=O [KCH-6] (H-P[2Nal]RSVQ-NH2)", "pKi": 3.18}
